Ref: the supplement of paper PMC10567573

Reported protein stability index by item:
B1: TRIM35 (parent)
chain: WEVQVSPTCPVCKDRASPADLRTN

variants of: B1; experiment: protein stability index of a GFP-peptide fusion (GPS, HEK-293T) (PSI 1-6); higher = more stable; settings: c terminus: a fixed tail appended;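 note: lentivirally expressed fusions sorted by FACS into six bins by GFP to DsRed ratio, PSI derived from sequencing read proportions per bin multiplied by bin number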
Write the value as a bare number.

So, S6R ? Its protein stability index was 2.5
